Let's look at some compounds and their measured inhibition.
# systemUnderTest: Rac GTPase-activating protein 1 (Homo sapiens) (UniProt Q9H0H5)
# Sequence (Q9H0H5 whole entry, looked up): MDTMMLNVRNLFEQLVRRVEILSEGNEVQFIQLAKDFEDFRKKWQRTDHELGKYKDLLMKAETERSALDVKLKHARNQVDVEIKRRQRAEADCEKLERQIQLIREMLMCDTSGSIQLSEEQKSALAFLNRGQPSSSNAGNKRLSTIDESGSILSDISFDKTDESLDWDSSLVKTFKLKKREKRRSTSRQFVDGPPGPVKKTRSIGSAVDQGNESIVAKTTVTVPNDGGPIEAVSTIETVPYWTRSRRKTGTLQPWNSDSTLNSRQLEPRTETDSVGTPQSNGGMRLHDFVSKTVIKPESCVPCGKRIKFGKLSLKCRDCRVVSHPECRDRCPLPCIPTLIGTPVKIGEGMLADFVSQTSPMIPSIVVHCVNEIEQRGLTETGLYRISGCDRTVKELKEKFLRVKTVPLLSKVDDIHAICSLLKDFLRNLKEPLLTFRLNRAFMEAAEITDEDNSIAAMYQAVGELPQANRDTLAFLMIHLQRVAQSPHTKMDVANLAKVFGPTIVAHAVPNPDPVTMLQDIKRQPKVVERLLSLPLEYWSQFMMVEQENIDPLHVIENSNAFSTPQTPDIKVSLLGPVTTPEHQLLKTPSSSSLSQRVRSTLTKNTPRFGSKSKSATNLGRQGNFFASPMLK
# assayDetails: blockers of MgcRacGAP-driven Rac1 GTP hydrolysis – biochemical, ADP Hunter fluorescence, primary and confirmatory, confirmation (AID 624330);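 also: fluorescence reports GDP produced by GAP-driven GTP hydrolysis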
# conditionParameters: MgcRacGAP-stimulated Rac1 GTP hydrolysis, at 30 µM, stronger effect = higher value, GST-tagged Rac1 F28L mutant substrate
Hit rate of the full screen: of about 340,000 compounds, about 2,100 (0.62%) were called active. These entries were drawn from the full list. Results with a measured potency or affinity are listed apart.
measureName: inhibition (%)

> print(dat)
                                   molecule  experimentalvalue
1                Cc1cc(CSc2ccccc2C(=O)O)on1              -2.15
2  CNc1nc2c(c(=O)n(C)c(=O)n2C)n1CCCc1ccccc1               10.2
3          Nc1nc(N)c(N=Nc2ccccc2)c(=O)[nH]1               2.34
4     Cn1c(=O)[nH]c(=O)c2c1nc(N)n2Cc1ccccc1               5.45
